These measurements were taken from ChEMBL document CHEMBL1133284.

System: Nakaseomyces glabratus
Test Summary: In vitro minimum inhibitory concentration of compound was determined against Candida glabrata after 24 hr r
Type: functional
MIC listing for selected molecules.

Molecule	MIC
CC1C=C(c2cccc(F)c2)C(=O)O1 (stereo not given)	> 1000 µM
CC1C=C(c2ccccc2)C(=O)O1 (stereo not given)	> 1000 µM
Cc1ccc(C2=CC(C)OC2=O)cc1 (stereo not given)	> 1000 µM
COc1ccc(C2=CC(C)OC2=O)cc1 (stereo not given)	> 1000 µM
CC1C=C(c2ccc(Cl)c(Cl)c2)C(=O)O1 (stereo not given)	> 500 µM

====

MIC listing for selected compounds.
Test system: Nakaseomyces glabratus
Test Summary: In vitro minimum inhibitory concentration of compound was determined against Candida glabrata after 48 hr
Format: functional
Property Name: MIC

Compound	Experimental System	Reading
CC1C=C(c2cccc(Br)c2)C(=O)O1 (stereo not drawn)	Nakaseomyces glabratus	500 µM
CC(=O)N1CCN(c2ccc(OC[C@H]3CO[C@](Cn4ccnc4)(c4ccc(Cl)cc4Cl)O3)cc2)CC1	Nakaseomyces glabratus	0.49 µM
COc1ccc(C2=CC(C)OC2=O)cc1 (stereo not drawn)	Nakaseomyces glabratus	> 1000 µM
